# ASSAY_METHOD_TEXT: NCI Yeast Anticancer Drug Screen. Data for the sgs1 mgt1 strain (AID 161)
# CONDITIONS_USED: S. cerevisiae sgs1 mgt1 strain, at 50.0 µM, hits give high values
# Experimental: Growth inhibition of yeast strains with defined genetic alterations is measured as a screen for potential anti-cancer activity. Selected strains with alterations in DNA damage repair or cell cycle control were exposed to compounds and growth inhibition was measured relative to vehicle treated controls. The strain used in this assay is sgs1 mgt1
Compounds without any hit were thinned out: in the full panel of roughly 79,000, 15% have a hit.
The class of a record is decided solely by its measured growth inhibition; consult bottom bin: < 60%; middle bin: ≥ 60% and < 90%; top bin: ≥ 90%

Ic1cccc2c1[se]c1ccccc12	bottom bin
c1cc[c]([Pb]([c]2ccccc2)[c]2ccccc2)cc1.c1cc[c]([Pb]([c]2ccccc2)[c]2ccccc2)cc1	top bin
CS(=O)(=O)OCCN(CCOS(C)(=O)=O)c1ccc(C=O)cc1	middle bin
O=C1C(=O)c2cccc3cccc1c23	bottom bin
CCC1(CC)C(=O)[N-]C(=O)[N-]C1=O.[Au+].[Au+].c1ccc([PH+](c2ccccc2)c2ccccc2)cc1.c1ccc([PH+](c2ccccc2)c2ccccc2)cc1	bottom bin

We next turn to a different molecule, shown below.
Note: place this molecule into its band. Item: "CC(=O)Nc1ccc(/C=N/N=C(/N)N[N+](=O)[O-])cc1"
bottom bin
